These entries and their values trace back to paper PMC5594551.

Method Notes: Veliparib quantified by LC-MS in plasma, TNBC xenograft tumor, muscle and liver of mice
Format: in vivo, beige SCID mice
Condition Info: beige SCID (Fox Chase), mouse, oral; liver; 60 mg/kg; 3 h after last dose; LC-MS; read-out: Median conc. (RSE %)
Parameter Measured: concentration at 3 h (ng/mL)

INSERT INTO results (molecule, parameter_measured, meas_value) VALUES
  ('C[C@]1(c2nc3c(C(N)=O)cccc3[nH]2)CCCN1 [veliparib]', 'concentration at 3 h', 1770);

* * *

Method Notes: Veliparib quantified by LC-MS in plasma, TNBC xenograft tumor, muscle and liver of mice
Assay type: in vivo, beige SCID mice
Condition Info: beige SCID (Fox Chase), mouse, tumor (MDA-MB-436 xenograft), oral; MDA-MB-436 xenograft tissue; 20 mg/kg; LC-MS; read-out: Median conc. (RSE %)
Parameter Measured: concentration at 3 h (µg/mL)

INSERT INTO measurements (molecule, meas_value) VALUES
  ('C[C@]1(c2nc3c(C(N)=O)cccc3[nH]2)CCCN1 [veliparib]', 0.05);

* * *

Method Notes: Veliparib quantified by LC-MS in plasma, TNBC xenograft tumor, muscle and liver of mice
Format: in vivo, beige SCID mice
Condition Info: beige SCID (Fox Chase), mouse, tumor (MDA-MB-231 xenograft), oral; MDA-MB-231 xenograft tissue; 20 mg/kg; LC-MS; read-out: Median conc. (RSE %)
Parameter Measured: concentration at 3 h

INSERT INTO measurements (structure_notation, meas_value) VALUES
  ('C[C@]1(c2nc3c(C(N)=O)cccc3[nH]2)CCCN1', '10 ng/mL');

* * *

Method Notes: Veliparib quantified by LC-MS in plasma, TNBC xenograft tumor, muscle and liver of mice
Format: in vivo, beige SCID mice
Condition Info: beige SCID (Fox Chase), mouse, tumor (MDA-MB-436 xenograft), oral; MDA-MB-436 xenograft tissue; 60 mg/kg; LC-MS; read-out: Median conc. (RSE %)
Procedure: Forty-one beige DF mice with severe combined immunodeficiency (SCID) (Fox Chase, strain R035948:1) were implanted with 10^6 MDA-MB-231 (N = 10), HCC70 N = 21) or MDA-MB-436 (N = 10) TNBC cells obtained from the ATCC bilaterally in the mammary fat pads (Fig. 1). […] Plasma samples (50 μl ) were prepared using protein precipitation with acetonitrile. […] Volume and weight of the pulverized tumor was determined. […] Veliparib/carboplatin quantification: […]
Parameter Measured: concentration at 3 h (ng/mL)

INSERT INTO results (structure_notation, parameter_measured, meas_value) VALUES
  ('C[C@]1(c2nc3c(C(N)=O)cccc3[nH]2)CCCN1', 'concentration at 3 h', 320);

* * *

Method Notes: Veliparib plasma and tumor PK model (NONMEM) in xenograft mice
Condition Info: beige SCID, mouse, plasma, oral
Parameter Measured: Km (µg/mL)

INSERT INTO results (structure_notation, parameter_measured, meas_value) VALUES
  ('C[C@]1(c2nc3c(C(N)=O)cccc3[nH]2)CCCN1', 'Km', 26.2);

* * *

Method Notes: Veliparib quantified by LC-MS in plasma, TNBC xenograft tumor, muscle and liver of mice
Assay type: in vivo, beige SCID mice
Condition Info: beige SCID (Fox Chase), mouse, tumor (HCC70 xenograft), oral; HCC70 xenograft tissue; 60 mg/kg; LC-MS; read-out: Median conc. (RSE %)
Experimental: Forty-one beige DF mice with severe combined immunodeficiency (SCID) (Fox Chase, strain R035948:1) were implanted with 10^6 MDA-MB-231 (N = 10), HCC70 N = 21) or MDA-MB-436 (N = 10) TNBC cells obtained from the ATCC bilaterally in the mammary fat pads (Fig. 1). […] Plasma samples (50 μl ) were prepared using protein precipitation with acetonitrile. […] Volume and weight of the pulverized tumor was determined. […] Veliparib/carboplatin quantification: […]
Parameter Measured: concentration at 3 h (ng/mL)

INSERT INTO assay_data (structure_notation, parameter_measured, unit_abbrev, meas_value) VALUES
  ('C[C@]1(c2nc3c(C(N)=O)cccc3[nH]2)CCCN1', 'concentration at 3 h', 'ng/mL', 430);

* * *

Method Notes: Veliparib plasma and tumor PK model (NONMEM) in xenograft mice
Condition Info: beige SCID (Fox Chase), mouse, tumor (HCC70 xenograft), oral, Penetration from plasma to xenograft tumor (ratio, RPT), HCC70 xenografts
Parameter Measured: Kp

INSERT INTO measurements (structure_notation, meas_value) VALUES
  ('C[C@]1(c2nc3c(C(N)=O)cccc3[nH]2)CCCN1', 0.75);

* * *

Method Notes: Veliparib plasma and tumor PK model (NONMEM) in xenograft mice
Condition Info: beige SCID (Fox Chase), mouse, tumor (MDA-MB-436 xenograft), oral, Penetration from plasma to xenograft tumor (ratio, RPT), MDA-MB-436 xenografts
Parameter Measured: Kp

INSERT INTO results (structure_notation, meas_value) VALUES
  ('C[C@]1(c2nc3c(C(N)=O)cccc3[nH]2)CCCN1', 0.46);
